Reference source: patent US7211572B2

Reported IC50 values are given for each entry in this list.
Target: HIV integrase (Human immunodeficiency virus type 1 group M subtype B, UniProt P12497, F1332H)
Construct: HIV integrase full length gene
Experiment: Determination of enzyme (HIV integrase) inhibitory activity
Settings: recombinant HIV integrase (F185H), strand transfer ELISA, absorbance at 450 nm
Counter-ions that a name gives are not always drawn.

INSERT INTO results (compound, measurement) VALUES
  ('CN(C)C(=O)CNC(=O)c1cn2ccn(Cc3cccc(Cl)c3)c(=O)c2c(O)c1=O', '10 to 100 nM'),
  ('COCc1c(-c2ccccn2)c(=O)c(O)c2n1CCN(Cc1ccc(F)cc1)C2=O [Example 424, hydrochloride]', '10 to 100 nM'),
  ('O=c1c(-c2ccc(Cl)cc2)cn2ccn(Cc3cccc(Cl)c3)c(=O)c2c1O [Example 113, hydrochloride]', '10 to 100 nM'),
  ('CC(C)Cc1cc(=O)c(O)c2n1CCN(Cc1ccc(Cl)c(Cl)c1)C2=O', '10 to 100 nM'),
  ('O=C1c2c(O)c(=O)c(NS(=O)(=O)c3cccs3)cn2CCN1Cc1ccc(F)c(Cl)c1', '10 to 100 nM'),
  ('COc1cc(Cl)cc(Cn2ccn3ccc(=O)c(O)c3c2=O)c1 [Example 212, hydrochloride]', '10 to 100 nM'),
  ('O=c1c(-c2ccncn2)cn2ccn(Cc3cccc(Cl)c3)c(=O)c2c1O [Example 391, hydrochloride]', '10 to 100 nM'),
  ('O=C(NCc1ccccn1)c1cn2c(c(O)c1=O)C(=O)N(Cc1ccc(F)cc1)CC2 [Example 410, hydrochloride]', '10 to 100 nM');

Asked: Item under review: CC(C)(C)Cc1cn2ccn(Cc3cccc(Cl)c3)c(=O)c2c(O)c1=O [Example 126, hydrochloride] . Reported IC50?
Given back: 10 to 100 nM
